Method: MTT viability assay in RPE cells
Type: cell-based, human
Particulars: human, retinal pigment epithelial (RPE) cells, 50 μM, read-out: percentage of RPE cell viability, 48 h
Reported values of viability at 48 h, 50 µM for individual entries
Quick note: give the figure in %, leave out the unit.

CC(C)(C)OC(=O)Nc1cccc(C(=O)/C=C/c2ccc(C(=O)NO)cc2)c1 : 52.8

[Q] Which viability at 48 h, 50 µM reading was recorded for the compound `Cn1c(/C=C/C(=O)c2ccc(NC(=O)OC(C)(C)C)cc2)ccc1C(=O)NO` ?
[A] 77.4

* * *

System: newly transformed schistosomula (NTS)
Method: Phenotypic screening on newly transformed schistosomula (NTS)
Type: cell-based, Schistosoma mansoni
Particulars: 1 μM
Reported values of percentage of NTS activity, 72 h for individual entries
Quick note: give the figure in %, leave out the unit.

A selection of reference data follows.
CC(C)(C)OC(=O)Nc1cccc(C(=O)/C=C/c2ccc(C(=O)NO)cc2)c1 [Compound 19] : 24.0
CC(C)(C)OC(=O)Nc1ccc(C(=O)/C=C/c2ccc(/C=C/C(=O)NO)cc2)cc1 [Compound 20] : 22.0
Cn1c(/C=C/C(=O)c2ccc(NC(=O)OC(C)(C)C)cc2)ccc1C(=O)NO [Compound 17] : 28.0

Continue with the compound presented below.
[Q] Which percentage of NTS activity, 72 h reading was recorded for the compound CC(C)(C)OC(=O)Nc1ccc(C(=O)/C=C/c2ccc(C(=O)NO)cc2)cc1 [Compound 18] ?
[A] 26.0
